Molecular target: human somatostatin receptor subtype 2 (Homo sapiens, UniProt P30874)
Construct: expressed in transfected cells
Sequence (P30874 whole entry): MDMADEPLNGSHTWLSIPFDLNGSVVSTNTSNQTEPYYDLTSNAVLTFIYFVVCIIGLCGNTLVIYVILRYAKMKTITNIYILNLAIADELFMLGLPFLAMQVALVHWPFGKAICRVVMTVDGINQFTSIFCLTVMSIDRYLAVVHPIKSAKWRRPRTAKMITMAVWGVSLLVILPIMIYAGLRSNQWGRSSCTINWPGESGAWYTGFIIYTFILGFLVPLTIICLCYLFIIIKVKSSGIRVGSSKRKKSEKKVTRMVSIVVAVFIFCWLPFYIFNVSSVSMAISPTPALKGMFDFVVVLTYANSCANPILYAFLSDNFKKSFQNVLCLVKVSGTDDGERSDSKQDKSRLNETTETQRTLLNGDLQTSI
Experiment: Functional cAMP assay for SSTR2 agonists (HTRF) in CHO-K1 cells
Assay type: cell-based
Settings: CHO-K1 cells stably expressing human SST2, 20 min; read-out: hSST2 cAMP Avg EC50
Consider the following compounds; for each one, report its EC50.
Numbers only, in pM.

These recorded examples may help you get a feel for the data.
smiles.entry: CC[C@H](C)[C@@H]([C@@H](CC(=O)N1CCC[C@H]1[C@H](OC)[C@@H](C)C(=O)N[C@@H](Cc1ccccc1)C(=O)O)OC)N(C)C(=O)[C@@H](NC(=O)[C@H](C(C)C)N(C)C(=O)CCOCCOCCOCCOCCC(=O)NCCNc1ncc(-c2cc(C)cc(F)c2)c(N2CCC(N)CC2)c1-c1nc2ccc(Cl)cc2[nH]1)C(C)C
display.unit: pM
EC50: 86
--
smiles.entry: CC[C@H](C)[C@@H]([C@@H](CC(=O)N1CCC[C@H]1[C@H](OC)[C@@H](C)C(=O)N[C@H](C)[C@@H](O)c1ccccc1)OC)N(C)C(=O)[C@@H](NC(=O)[C@H](C(C)C)N(C)C(=O)OCc1ccc(NC(=O)[C@H](C)NC(=O)[C@@H](NC(=O)CCOCCOCCC(=O)NCCNc2ncc(-c3cc(C)cc(F)c3)c(N3CCC(N)CC3)c2-c2nc3ccc(Cl)cc3[nH]2)C(C)C)c(O[C@@H]2O[C@H](C(=O)O)[C@@H](O)[C@H](O)[C@H]2O)c1)C(C)C
display.unit: pM
EC50: 99

Now for a further compound.
Task: Form field - read-out: EC50; system: human somatostatin receptor subtype 2 (Homo sapiens, UniProt P30874); submitted item: `CC[C@H](C)[C@@H]([C@@H](CC(=O)N1CCC[C@H]1[C@H](OC)[C@@H](C)C(=O)N[C@H](C)[C@@H](O)c1ccccc1)OC)N(C)C(=O)[C@@H](NC(=O)[C@H](C(C)C)N(C)C(=O)OCc1ccc(NC(=O)[C@H](CCCNC(N)=O)NC(=O)[C@@H](NC(=O)[C@@H](CS(=O)(=O)O)NC(=O)CCOCCC(=O)NCCNc2ncc(-c3cc(C)cc(F)c3)c(N3CCC(N)CC3)c2-c2nc3ccc(Cl)cc3[nH]2)C(C)C)cc1C(=O)NCCN)C(C)C`
Result: 150
